Known pIC50 of a selection of molecules
- study-system: CXCR3 (Macaca fascicularis, UniProt A0A2K5UV19)
- Sequence (A0A2K5UV19 entry or part of it): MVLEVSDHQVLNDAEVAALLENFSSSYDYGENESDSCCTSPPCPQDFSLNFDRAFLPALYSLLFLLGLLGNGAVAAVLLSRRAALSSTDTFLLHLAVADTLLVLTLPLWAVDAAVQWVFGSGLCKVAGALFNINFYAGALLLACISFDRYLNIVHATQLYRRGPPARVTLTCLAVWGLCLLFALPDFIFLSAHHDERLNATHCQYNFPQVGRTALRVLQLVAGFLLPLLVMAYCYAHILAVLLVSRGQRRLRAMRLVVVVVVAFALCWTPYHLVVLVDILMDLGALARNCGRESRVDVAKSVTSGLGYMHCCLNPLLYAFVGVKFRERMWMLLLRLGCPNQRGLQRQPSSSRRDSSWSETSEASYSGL
- experiment-summary: functional cellular assay measuring calcium flux in CXCR3 transfected cells (block of CXCR3/IP-10 interaction)
- measurement-setup: IP-10 induced intracellular calcium flux; Cyno-CHO cells stably expressing recombinant CXCR3 and G-alpha-16
- Method: Compounds are assessed for the ability to block the interaction of CXCR3 and IP-10 in a functional cellular assay measuring calcium flux in CXCR3 transfected cells. […] Test compounds are dissolved in DMSO and diluted to 1.045 mM in DMSO. […] Intracellular calcium flux is recorded on the HAMAMTSU FDSS6000, using excitation at 480 nm and emission at 540 nm. Data are analyzed using Activity Base software. […]
FYI, pIC50 means -log10 of a concentration in mol per litre.

Cc1ccc(NC(=O)c2ccccc2N2CCN(C(=O)Cn3ccc4cccnc43)CC2)cn1 :: 8.17

-- ask Lookup: pIC50 / CXCR3 (Macaca fascicularis, UniProt A0A2K5UV19) / `CN1CCc2nc(NC(=O)c3cc(F)ccc3N3CCN(C(=O)CN4Cc5ccccc5C4=O)CC3)sc2C1`
-- reply 8.09

-- ask Same lookup for `CC(=O)Nc1ccc(NC(=O)c2ccccc2N2CCN(C(=O)Cn3nc(C)cc3C)CC2)cn1` , please.
-- reply 7.99

-- ask Same lookup for `Cc1cc(C)n(CC(=O)N2CCCN(c3ncc(Cl)cc3NC(=O)c3cccc(Cl)c3)CC2)n1` , please.
-- reply 7.82

-- ask Same lookup for `COc1cc(NC(=O)c2ccccc2N2CCN(C(=O)CN3CCCCC3=O)[C@@H](C)C2)ccn1` , please.
-- reply 7.89

====

- study-system: CXCR3 (Macaca fascicularis, UniProt A0A2K5UV19)
- experiment-summary: functional cellular assay measuring calcium flux in CXCR3 transfected cells (block of CXCR3/IP-10 interaction)
- measurement-setup: IP-10 induced intracellular calcium flux; Cyno-CHO cells stably expressing recombinant CXCR3 and G-alpha-16
recorded-metric: IC50 (nM)
API: value field is a number in nM; no unit string.

Cc1cc(C)n(CC(=O)N2CCN(c3ccccc3C(=O)Nc3cc(C(C)(C)C)no3)CC2)n1 :: 8.9
Cc1cc(C)n(CC(=O)N2CCN(c3ccccc3C(=O)Nc3ccncc3)CC2)n1 :: 4.7
O=C(Nc1ccncc1)c1ccccc1N1CCN(C(=O)CNc2ccccc2)CC1 :: 19

-- ask Return reported IC50; argument: `Cc1cc(C)n(CC(=O)N2CCN(c3ncc(Cl)cc3NC(=O)c3ccc(S(C)(=O)=O)cc3)CC2)n1`
-- reply 23

-- ask Same lookup for `Cc1cc(C)n(CC(=O)N2CCN(c3ccccc3C(=O)Nc3nc4c(s3)CCCC4)CC2)n1` , please.
-- reply 12

-- ask Same lookup for `Cc1cc(C)n(CC(=O)N2CCN(c3ccccc3C(=O)Nc3nc4ccc(S(C)(=O)=O)cc4s3)CC2)n1` , please.
-- reply 6.6

-- ask Same lookup for `Cc1cc(C)n(CC(=O)N2CCN(c3ccccc3NC(=O)c3ccccc3)CC2)n1` , please.
-- reply 6.6

====

- study-system: CXCR3 (Macaca fascicularis, UniProt A0A2K5UV19)
- experiment-summary: functional cellular assay measuring calcium flux in CXCR3 transfected cells (block of CXCR3/IP-10 interaction)
- measurement-setup: IP-10 induced intracellular calcium flux; Cyno-CHO cells stably expressing recombinant CXCR3 and G-alpha-16
- Method: Compounds are assessed for the ability to block the interaction of CXCR3 and IP-10 in a functional cellular assay measuring calcium flux in CXCR3 transfected cells. […] Test compounds are dissolved in DMSO and diluted to 1.045 mM in DMSO. […] Intracellular calcium flux is recorded on the HAMAMTSU FDSS6000, using excitation at 480 nm and emission at 540 nm. Data are analyzed using Activity Base software. […]
recorded-metric: pIC50
FYI, pIC50 means -log10 of a concentration in mol per litre.

-- ask Lookup: pIC50 / CXCR3 (Macaca fascicularis, UniProt A0A2K5UV19) / `COc1cc(NC(=O)c2ccccc2N2CCN(C(=O)CN(C)C(=O)c3ncoc3C)CC2)ccn1`
-- reply 8.26

-- ask Same lookup for `O=C(Nc1ccncc1)c1ccccc1N1CCN(C(=O)Cc2cccc3cccnc23)CC1` , please.
-- reply 7.85

-- ask Same lookup for `Cc1nc(C)c(CC(=O)N2CCN(c3ccccc3C(=O)Nc3ccncc3)CC2)s1` , please.
-- reply 7.89

-- ask Same lookup for `O=C(Nc1ccncc1)c1ccccc1N1CCN(C(=O)CN2Cc3ccccc3C2=O)CC1` , please.
-- reply 8.29

-- ask Same lookup for `COc1ccc(C(=O)NCC(=O)N2CCN(c3ccccc3C(=O)Nc3cccnc3)CC2)cc1` , please.
-- reply 7.80

====

- study-system: CXCR3 (Macaca fascicularis)
- experiment-summary: functional cellular assay measuring calcium flux in CXCR3 transfected cells (block of CXCR3/IP-10 interaction)
- measurement-setup: IP-10 induced intracellular calcium flux; Cyno-CHO cells stably expressing recombinant CXCR3 and G-alpha-16
Known IC50 of a selection of molecules
API: value field is a number in nM; no unit string.

-- ask Lookup: IC50 / CXCR3 (Macaca fascicularis) / `Cn1cccc1C(=O)NCC(=O)N1CCN(c2ccccc2C(=O)Nc2cccnc2)CC1`
-- reply 12

-- ask Same lookup for `Cc1cc(C)n(CC(=O)N2CCN(c3ccccc3C(=O)Nc3ccnc(OCC(F)(F)F)c3)CC2)n1` , please.
-- reply 8.8

-- ask Same lookup for `O=C(Nc1ccncc1)c1ccccc1N1CCN(C(=O)Cc2cn3ccccc3n2)CC1` , please.
-- reply 16

====

Known log10 of IC50 of a selection of molecules
- study-system: CXCR3 (Macaca fascicularis)
- experiment-summary: functional cellular assay measuring calcium flux in CXCR3 transfected cells (block of CXCR3/IP-10 interaction)
- Assay type: cell-based
- measurement-setup: IP-10 induced intracellular calcium flux; Cyno-CHO cells stably expressing recombinant CXCR3 and G-alpha-16
Please interpret these as log10 of IC50 where IC50 is in nM.

Worked cases, answers included:
Cc1cc(C)n(CC(=O)N2CCN(c3ccccc3C(=O)Nc3ccc(Br)nc3)CC2)n1 :: 0.93
Cc1cn(CC(=O)N2CCN(c3ccccc3C(=O)Nc3ccccc3)CC2)c(C)n1 :: 0.70
COc1ccc2nc(NC(=O)c3ccccc3N3CCN(C(=O)Cn4nc(C)cc4C)CC3)sc2c1 :: 0.99
COc1ccc(C(=O)NCC(=O)N2CCN(c3ccccc3C(=O)Nc3ccncc3)CC2)cc1F :: 0.62
Cc1cc(C)n(CC(=O)N2CCN(c3ccccc3C(=O)Nc3cc(C(C)(C)C)ns3)CC2)n1 :: 1.00
Cc1cc(C)n(CC(=O)N2CCN(c3ccccc3C(=O)Nc3ccc(-c4ccccc4)nc3)CC2)n1 :: 1.06

-- ask Return reported log10 of IC50; argument: `Cc1cc(C)n(CC(=O)N2CCN(c3ccccc3NC(=O)c3ccc(Cl)nc3)CC2)n1`
-- reply 1.18

-- ask Same lookup for `Cc1cc(C)n(CC(=O)N2CCN(c3ccccc3C(=O)Nc3nc(C(C)(C)C)cs3)CC2)n1` , please.
-- reply 1.18

-- ask Same lookup for `Cc1cc(C)n(CC(=O)N2CCN(c3ccccc3C(=O)Nc3cnc(C(F)(F)F)nc3)CC2)n1` , please.
-- reply 0.70

-- ask Same lookup for `COc1cc(NC(=O)c2ccccc2N2CCN(C(=O)CN3CCCCC3=O)CC2)ccn1` , please.
-- reply 0.64

-- ask Same lookup for `Cc1nc(CC(=O)N2CCN(c3ccccc3C(=O)Nc3ccncc3)CC2)c(C)s1` , please.
-- reply 0.85

====

- study-system: CXCR3 (Macaca fascicularis, UniProt A0A2K5UV19)
- experiment-summary: functional cellular assay measuring calcium flux in CXCR3 transfected cells (block of CXCR3/IP-10 interaction)
- measurement-setup: IP-10 induced intracellular calcium flux; Cyno-CHO cells stably expressing recombinant CXCR3 and G-alpha-16
Known IC50 of a selection of compounds
Your reply should be a number followed by the unit it is expressed in.

O=C(Nc1cnc2ccccc2c1)c1ccccc1N1CCN(C(=O)Cn2ccc3cccnc32)CC1 :: 8.4 nM
Cc1cncc(NC(=O)c2ccccc2N2CCN(C(=O)Cn3nc(C)cc3C)CC2)c1 :: 5.1 nM
Cc1cc(C)n(CC(=O)N2CCN(c3ccccc3C(=O)Nc3cccc(C#N)c3)CC2)n1 :: 4.5 nM
O=C(Nc1ccc(C(F)(F)F)nc1)c1ccccc1N1CCN(C(=O)CN2CCCCC2=O)CC1 :: 3 nM
CN(CC(=O)N1CCN(c2ccccc2C(=O)Nc2ccncc2)CC1)C(=O)c1ccccc1 :: 8.4 nM

-- ask Return reported IC50; argument: `Cc1cc(C)n(CC(=O)N2CC=C(c3ccc(Cl)cc3NC(=O)c3cccc(Cl)c3)CC2)n1`
-- reply 7 nM

-- ask Same lookup for `Cn1c(=O)n(CC(=O)N2CCN(c3ccccc3C(=O)Nc3ccncc3)CC2)c2ccccc21` , please.
-- reply 4 nM

-- ask Same lookup for `COc1cccc(C(=O)N(C)CC(=O)N2CCN(c3ccccc3C(=O)Nc3ccncc3)CC2)c1OC` , please.
-- reply 15 nM

-- ask Same lookup for `O=C(NCC(=O)N1CCN(c2ccccc2C(=O)Nc2cccnc2)CC1)c1ccc(OC(F)F)cc1` , please.
-- reply 18.3 nM

-- ask Same lookup for `Cc1cc(C)n(CC(=O)N2CCN(c3ccccc3C(=O)Nc3ccc4ncccc4c3)CC2)n1` , please.
-- reply 11.5 nM

-- ask Same lookup for `Cc1cc(C)n(CC(=O)N2CCN(c3ccccc3C(=O)Nc3nc(C(F)(F)F)cs3)CC2)n1` , please.
-- reply 18 nM

-- ask Same lookup for `Cc1cc(C)n(CC(=O)N2CCN(c3ncc(Cl)cc3NC(=O)c3cccc(Cl)c3)CC2)n1` , please.
-- reply 11.5 nM

The measurements presented in this section are drawn from patent US8362249B2.
